B1: HDV Ribozyme (parent)
chain: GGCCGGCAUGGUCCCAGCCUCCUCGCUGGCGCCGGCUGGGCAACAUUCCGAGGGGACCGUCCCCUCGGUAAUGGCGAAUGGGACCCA

Variants of: B1
Test: self-cleavage, relative activity (ratio to wild type); higher = more cleavage; co-transcriptional
Measurement Kind: self-cleavage
// print number alone

Study these solved cases before continuing.
| Mutation Key | self-cleavage |
| --- | --- |
| C21A U46A | 0.322 |
| C33U C61A | 0.721 |
| U9G A56G | 0.895 |
| G40U U65A | 0.808 |
| G40C U69G | 0.361 |

Per the record, U46C G81U has self-cleavage of 0.302

Per the record, G28C A77G has self-cleavage of 0.119

Per the record, U9G G28U has self-cleavage of 0.151

Per the record, U9C C75G has self-cleavage of 0

Per the record, C19A G31C has self-cleavage of 0.141

Per the record, U37C U47G has self-cleavage of 0.8
